The values you see were collected from PubChem BioAssay AID2060893.

tested on: K86415-001-R-J1-PDC complex spheroids, viability; experiment: Anticancer human tumor K86415-001-R-J1-PDC patient-derived lung adenocarcinoma cell line growth inhibition [RAS]; conditions: second compound 0.003 µM; first compound 0.00316 µM; stronger effect = lower value;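 note: spheroids exposed to agents for seven days before readout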
For each of the compounds below, state its viability, T/C.
Answers are plain numbers, in %.

C=CC(=O)Nc1cc(Nc2nccc(-c3cn(C)c4ccccc34)n2)c(OC)cc1N(C)CCN(C)C + CCn1c(-c2cccnc2C(C)OC)c2c3cc(ccc31)N1CCOC(CC(NC(=O)C(C(C)C)N(C)C(=O)C3(F)CCN(C(=O)C#CC(C)(C)N(C)C)CC3)C(=O)N3CCCC(N3)C(=O)OCC(C)(C)C2)C1 :: 14.9
CC(C)n1nc(-c2ccc3oc(N)nc3c2)c2c(N)ncnc21 + CCn1c(-c2cc(N3CCN(C)CC3)cnc2C(C)OC)c2c3cc(ccc31)-c1csc(n1)CC(NC(=O)C1CC1C)C(=O)N1CCCC(N1)C(=O)OCC(C)(C)C2 :: 18.4
O=C(c1ccc(F)c(F)c1Nc1ccc(I)cc1F)N1CC(O)([C@@H]2CCCCN2)C1 + CCn1c(-c2cc(N3CCN(C)CC3)cnc2C(C)OC)c2c3cc(ccc31)-c1csc(n1)CC(NC(=O)C1CC1C)C(=O)N1CCCC(N1)C(=O)OCC(C)(C)C2 :: 20.1

Attention now turns to another entry.
Q: Identify measured viability, T/C corresponding to CC(C)n1nc(-c2ccc3oc(N)nc3c2)c2c(N)ncnc21 + CCn1c(-c2cccnc2C(C)OC)c2c3cc(ccc31)N1CCOC(CC(NC(=O)C(C(C)C)N(C)C(=O)C3(F)CCN(C(=O)C#CC(C)(C)N(C)C)CC3)C(=O)N3CCCC(N3)C(=O)OCC(C)(C)C2)C1
Ans: 10.7
